# measurement_target: STING (Homo sapiens, UniProt Q86WV6, G230A/H232R/R293Q/R71H)
# Sequence (Q86WV6 whole entry R71H/G230A/H232R/R293Q): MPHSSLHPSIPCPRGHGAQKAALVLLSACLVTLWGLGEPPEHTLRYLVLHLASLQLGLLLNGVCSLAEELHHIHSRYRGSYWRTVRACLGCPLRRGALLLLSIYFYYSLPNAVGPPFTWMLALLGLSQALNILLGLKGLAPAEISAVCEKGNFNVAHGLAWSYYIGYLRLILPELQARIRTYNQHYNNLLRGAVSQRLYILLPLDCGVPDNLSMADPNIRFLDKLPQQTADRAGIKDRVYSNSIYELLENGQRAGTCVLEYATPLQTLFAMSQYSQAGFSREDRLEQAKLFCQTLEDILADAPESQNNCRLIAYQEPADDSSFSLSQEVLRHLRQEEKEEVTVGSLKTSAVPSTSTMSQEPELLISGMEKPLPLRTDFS
# test_description: STING reporter assay in THP1-Dual KO-IFNAR2 cells (2′3′cGAMP stimulation, luciferase reporter)
# condition_notes: 15 μM 2′3′cGAMP stimulation, 24 h, read-out: Pharmaron, THP1_IFNAR2 STING 24 h Luci Normalized: GeoMean EC50
property_name: EC50

Here's what some known entries look like.
>>> readout_value("CC(=O)Nc1c[nH]c2ccc(CCOc3cnc(Cl)c(C)c3)cc12")
"1 to 5 µM"
>>> readout_value("O=C(Nc1c[nH]c2ccc(CCOc3ccc(C(F)(F)F)cc3)cc12)C1CC(Cl)C1 (stereo not shown)")
"0.2 to 1 µM"

Shift focus to the following entry.
Request: Entry under review: CC(=O)CCc1ccc(OCCc2ccc3[nH]cc(NC(C)=O)c3c2)cc1 . Reported EC50?
Response: 1 to 5 µM

* * *

# measurement_target: STING (Homo sapiens, UniProt Q86WV6, G230A/H232R/R293Q/R71H)
# test_description: STING reporter assay in THP1-Dual KO-IFNAR2 cells (2′3′cGAMP stimulation, luciferase reporter)
# condition_notes: 15 μM 2′3′cGAMP stimulation, 24 h, read-out: Pharmaron, THP1_IFNAR2 STING 24 h Luci Normalized: GeoMean EC50
The entries below come with measured EC50 values attached.

>>> readout_value("O=C(Nc1c[nH]c2ccc(CCOc3ccc(C(F)(F)F)cc3)cc12)C1COC1")
"200 to 1000 nM"
>>> readout_value("COCC1(C(=O)Nc2c[nH]c3ccc(OCc4ccc(C(F)(F)F)cc4)cc23)CC1")
"200 to 1000 nM"
>>> readout_value("O=C(Nc1c[nH]c2ccc(O[C@H]3C[C@H](c4ccc(C(F)(F)F)nc4)C3)cc12)c1ccc(C(F)(F)F)cc1")
"200 to 1000 nM"
>>> readout_value("O=C(Nc1c[nH]c2ccc(O[C@H]3C[C@@H](c4ccc(C(F)(F)F)cc4)C3)cc12)C1CC(F)C1 (stereo partly shown)")
"40 to 200 nM"
>>> readout_value("CO[C@H]1C[C@H](C(=O)Nc2c[nH]c3ccc(OCc4ccc(C(F)(F)F)cc4)cc23)C1")
"40 to 200 nM"

Request: Entry under review: C[C@]1(C(=O)Nc2c[nH]c3ccc(OCCc4ccc(C(F)(F)F)cc4)cc23)C[C@H](O)C1 . Reported EC50?
Response: 40 to 200 nM

Request: Try CC(=O)Nc1c[nH]c2ccc(CCOc3ccc(-c4csc(C)n4)cc3)cc12 next.
Response: 1000 to 5000 nM

Request: Try O=C(Nc1c[nH]c2ccc(CCOc3ccc(C(F)(F)F)cc3)cc12)C1CC1(F)Cl (stereo not shown) next.
Response: 200 to 1000 nM

* * *

# measurement_target: STING (Homo sapiens, UniProt Q86WV6, G230A/H232R/R293Q/R71H)
# test_description: STING reporter assay in THP1-Dual KO-IFNAR2 cells (2′3′cGAMP stimulation, luciferase reporter)
# condition_notes: 15 μM 2′3′cGAMP stimulation, 24 h, read-out: Pharmaron, THP1_IFNAR2 STING 24 h Luci Normalized: GeoMean EC50
property_name: EC50

Here's what some known entries look like.
>>> readout_value("CC1(C(=O)Nc2c[nH]c3ccc(OCc4ccc(C(F)(F)F)cc4)cc23)CCOCC1")
"200 to 1000 nM"
>>> readout_value("CC(=O)Nc1c[nH]c2ccc(OC(C)Cc3ccc(C(F)(F)F)cc3)cc12 (single isomer, unassigned) [Compound 286]")
"1000 to 5000 nM"
>>> readout_value("N#C[C@H]1C[C@@H]1C(=O)Nc1c[nH]c2ccc(CCOc3ccc(C(F)(F)F)cc3)cc12")
"40 to 200 nM"
>>> readout_value("C[C@H]1C[C@H](C(=O)Nc2c[nH]c3ccc(CCOc4ccc(C(F)(F)F)cc4)cc23)C1")
"200 to 1000 nM"
>>> readout_value("O=C(Nc1c[nH]c2ccc(O[C@H]3C[C@@H](c4ccc(C(F)(F)F)nc4)C3)cc12)[C@H]1C[C@@H](CO)C1")
"200 to 1000 nM"

Request: Entry under review: CC(=O)Nc1c[nH]c2c(C)cc(CCOc3ccc(C(F)(F)F)cc3)cc12 . Reported EC50?
Response: 1000 to 5000 nM

Request: Try CC(C)(C)C(=O)Nc1c[nH]c2ccc(OCc3ccc(C(F)(F)F)cc3)cc12 next.
Response: 200 to 1000 nM
